system: K562; assay: NCI tumour cell line growth inhibition, 48 h
The source made the active and inactive calls. Cut-off read from the data, not from the text of the source: active = GI50 up to about 1.1 µM and inactive = higher.
Possible outcomes: label 1 for active, label 0 for inactive

compound="CCOC(=O)C(C)(C)C(O)C(C)C (stereo not given)" category_label="label 0"
compound="O=c1ccn(C2(CO)C=C(CO)C(O)C2O)c(=O)[nH]1 (stereo not given)" category_label="label 0"
compound="c1ccc(C2C3=C(c4ccccc4CC3)N3c4cc5c(cc4=NC34CCCCC24)Nc2ccccc2N=5)cc1 (stereo not given)" category_label="label 0"
compound="CCCCCCCCCCCCCCCCCCOP(=O)([O-])OC1CC[N+](C)(C)CC1 [PERIFOSINE]" category_label="label 0"
compound=CO[P@]1(=O)O[C@@H](c2ccccc2)[C@H](O)[C@]1(O)c1ccccc1 category_label="label 0"
compound=O=C1CCCn2c(nc3ccccc32)N1 category_label="label 0"
compound=CN(C)Cc1cc(/N=N/c2ccccc2)ccc1O category_label="label 0"
compound=COc1ccc(C2=N/C(=C\c3ccccc3)C(=O)O2)cc1 category_label="label 0"
compound="CCCCCCCCCCCC(=O)OCC1OC(n2cc(F)c(=O)[nH]c2=O)C(N)C(O)C1O (stereo not given)" category_label="label 0"
compound=COc1cc(CCNC2=CC(=O)c3ncccc3C2=O)ccc1O category_label="label 0"
compound="CON1C(=O)C2(CCCCC2)C(=O)C12C=CC(C)CC2 (stereo not given)" category_label="label 0"
compound=CCOC(=O)c1cc(C(=O)c2ccccc2)n2nc(-c3ccc(Cl)cc3)ccc12 category_label="label 0"
compound=O=C1Nc2ccccc2/C1=N/NC(=S)N1CCCC1 category_label="label 1"
compound=CC(C)C.C[N+](C)(C)C.OC(c1ccccc1)(C(F)(F)F)C(F)(F)F.OC(c1ccccc1)(C(F)(F)F)C(F)(F)F.[SiH3-] category_label="label 0"
compound="C1CCN2CC3CONC3C2C1 (stereo not given)" category_label="label 0"
